The following variants are listed with their measured protein stability index values.
B1: IKZF1 (parent)
chain: YHSQDRYEFSSHITRGEHRFHMS

Variants of: B1
Experiment: protein stability index of a GFP-peptide fusion (GPS, HEK-293T) (PSI 1-6); higher = more stable;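 note: lentivirally expressed fusions sorted by FACS into six bins by GFP to DsRed ratio, PSI derived from sequencing read proportions per bin multiplied by bin number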
Conditions: c terminus: native

VARIANT_NOTATION | protein stability index
G16H | 1.56
H21W | 1.81
F9I | 2.03
S3W | 2.61
F9R | 1.67
F20A | 2.15
Q4D | 2.75
